Listed binders paired with reported EC50 (read off the curve)
- System tested: T1, recombinant cynomolgus monkey PD-L1_ECD Fc-fusion protein (Sino Biological Inc.) (cynomolgus monkey, UniProt G7PSE7 19-238)
- T1 construct: Bought
- T1 sequence (G7PSE7 entry or part of it limits assumed): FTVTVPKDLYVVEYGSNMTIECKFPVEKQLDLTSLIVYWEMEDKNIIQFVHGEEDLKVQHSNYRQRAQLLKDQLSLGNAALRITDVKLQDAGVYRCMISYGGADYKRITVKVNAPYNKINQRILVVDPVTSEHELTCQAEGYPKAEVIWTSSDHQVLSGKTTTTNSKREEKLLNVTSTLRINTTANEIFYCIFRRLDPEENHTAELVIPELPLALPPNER
- Test protocol: ELISA: cynomolgus monkey PD-L1_ECD/Fc coated (9 ng/well), peroxidase-labeled goat anti-human IgG F(ab)'2, TMB, OD450
Property name: EC50 (read off the curve)

[[record]]
binder = "PL3#7-19 mtIgG1 (antibody, V domains shown, Antibody was biotinylated (NHS-PEG4-biotin, sites not specified) for the Octet assay of Table 11., N297A mutant human IgG1; also called PL3#7-19 parental mtIgG1) VH: QVQLVQSGAEVKKPGSSVKVSCKASGGTFSSYPISWVRQAPGQGLEWMGRIIPILGIANYAQKFQGRVTITADKSTSTAYMELSSLRSEDTAVYYCARSRDGYAFGAFDVWGQGTLVTVSS VL: QSVVTQPPPVSGAPGQRVTISCTGSSSNIGGGYDVHWYQQLPGTAPKLLIYGNSTRPSGVPDRFSGSKSGTSASLAITGLQAEDEADYYCQTYDSSLSATVVFGGGTKLTVLG"
val = "~0.05 µg/mL"

[[record]]
binder = "PL3#7 mtIgG1 (antibody, V domains shown, Antibody was biotinylated (NHS-PEG4-biotin, sites not specified) for the Octet assay of Table 11., N297A mutant human IgG1) VH: QVQLVQSGAEVKKPGSSVKVSCKASGGTFSSYPISWVRQAPGQGLEWIGRIIPILGIANYAQKFQGRVTITADKSTSTAYMELSSLRSEDTAVYYCARSRDGYAFGAFDIWGQGTLVTVSS VL: QSVVTQPPPVSGAPGQRVTISCTGSSSNIGAGYDVHWYQQLPGTAPKLLIYGNSNRPSGVPDRFSGSKSGTSASLAITGLQAEDEADYYCQTYDSSLSARVVFGGGTKLTVLG"
val = "~0.04 µg/mL"

